# Subject of test: Wee1A kinase (CDK1 Tyr15 phosphorylation in ACHN renal cell carcinoma cells) (Homo sapiens, UniProt P30291)
# Construct: pCDK1 Tyr15 immunofluorescence read-out
# Sequence (P30291 whole entry): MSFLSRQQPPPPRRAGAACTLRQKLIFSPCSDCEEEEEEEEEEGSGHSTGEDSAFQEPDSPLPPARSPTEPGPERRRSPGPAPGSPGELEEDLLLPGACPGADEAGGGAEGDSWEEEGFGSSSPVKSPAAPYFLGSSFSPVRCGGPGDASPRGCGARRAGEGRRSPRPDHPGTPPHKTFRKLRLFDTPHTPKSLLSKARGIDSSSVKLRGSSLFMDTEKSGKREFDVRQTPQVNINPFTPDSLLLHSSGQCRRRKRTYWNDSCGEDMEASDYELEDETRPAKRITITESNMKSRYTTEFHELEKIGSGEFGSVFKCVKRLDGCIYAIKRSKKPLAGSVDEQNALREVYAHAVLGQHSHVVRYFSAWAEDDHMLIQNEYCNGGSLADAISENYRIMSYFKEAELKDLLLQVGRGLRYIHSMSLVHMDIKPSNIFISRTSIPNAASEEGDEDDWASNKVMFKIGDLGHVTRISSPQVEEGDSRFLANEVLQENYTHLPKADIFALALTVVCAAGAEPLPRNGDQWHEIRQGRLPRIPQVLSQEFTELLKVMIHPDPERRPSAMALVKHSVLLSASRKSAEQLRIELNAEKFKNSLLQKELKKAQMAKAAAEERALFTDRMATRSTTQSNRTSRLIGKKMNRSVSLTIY
# Method notes: High-content imaging of pCdk1 Y15, Wee1A kinase target engagement in ACHN cells
# Type: cell-based
# Measurement conditions: 4 h treatment, nuclear positivity for pCdk1 Y15 vs DMSO control, read-out: CDK1 Tyr15 Phosphorylation EC50
pEC50: −log10 of the molar value.
Assay metric: pEC50

[[record]]
molecule = "C=CCn1c(=O)c2cnc(Nc3ccc4c(c3)c(C)nn4C)nc2n1-c1cccc(OC2CCN(C)CC2)n1"
assay_metric = "pEC50"
recorded_value = "> 7.00"

[[record]]
molecule = "CCn1c(=O)c2cnc(Nc3ccc(F)cc3)nc2n1-c1cccc(OC2CCN(C)CC2)n1"
assay_metric = "pEC50"
recorded_value = "6.30 to 7.00"

[[record]]
molecule = "C=CCn1c(=O)c2cnc(Nc3ccc4nn(C)cc4c3)nc2n1-c1cccc(OC2CCN(C)CC2)n1"
assay_metric = "pEC50"
recorded_value = "> 7.00"

[[record]]
molecule = "C=CCn1c(=O)c2cnc(Nc3cccc(C)c3)nc2n1-c1cccc(OC2CCN(C)CC2)n1"
assay_metric = "pEC50"
recorded_value = "> 7.00"

[[record]]
molecule = "C=CCn1c(=O)c2cnc(Nc3ccc4c(cnn4C)c3)nc2n1-c1cccc(O[C@H]2CCN(C)[C@H](C)C2)n1 (stereo in doubt)"
assay_metric = "pEC50"
recorded_value = "6.30 to 7.00"

[[record]]
molecule = "C=CCn1c(=O)c2cnc(Nc3ccc(Cl)c(Cl)c3)nc2n1-c1cccc(NC2CCN(C)CC2)n1"
assay_metric = "pEC50"
recorded_value = "6.30 to 7.00"

[[record]]
molecule = "CCn1c(=O)c2cnc(Nc3ccc(-c4ccccc4)cc3)nc2n1-c1cccc(OC2CCNCC2)n1"
assay_metric = "pEC50"
recorded_value = "6.30 to 7.00"

[[record]]
molecule = "C=CCn1c(=O)c2cnc(Nc3cncc(C#N)c3)nc2n1-c1cccc(OC2CCN(C)CC2)n1"
assay_metric = "pEC50"
recorded_value = "6.30 to 7.00"

[[record]]
molecule = "C=CCn1c(=O)c2cnc(Nc3ccnc(C)c3)nc2n1-c1cccc(OC2CCNCC2)c1"
assay_metric = "pEC50"
recorded_value = "< 6.00"

[[record]]
molecule = "C=CCn1c(=O)c2cnc(Nc3ccc4cnn(C)c4c3)nc2n1-c1cccc(OC2CCN(C)CC2)n1"
assay_metric = "pEC50"
recorded_value = "> 7.00"

[[record]]
molecule = "CCCn1c(=O)c2cnc(Nc3ccc4c(cnn4C)c3)nc2n1-c1cccc(OC2CCN(C)CC2)n1"
assay_metric = "pEC50"
recorded_value = "> 7.00"

[[record]]
molecule = "C=CCn1c(=O)c2cnc(Nc3ccc(OCC(F)(F)F)cc3)nc2n1-c1ccnc(NC2CCN(C)CC2)n1"
assay_metric = "pEC50"
recorded_value = "> 7.00"

[[record]]
molecule = "C=CCn1c(=O)c2cnc(Nc3ccc(F)cc3)nc2n1-c1cccc(NC2CCNCC2)n1"
assay_metric = "pEC50"
recorded_value = "6.00 to 6.30"

[[record]]
molecule = "CCn1c(=O)c2cnc(Nc3ccc(C#N)cc3)nc2n1-c1cccc(OC2CCN(C)CC2)n1"
assay_metric = "pEC50"
recorded_value = "6.30 to 7.00"

[[record]]
molecule = "C=CCn1c(=O)c2cnc(Nc3ccc4c(cnn4C)c3)nc2n1-c1cccc(OC2CCCN(C)CC2)n1 (stereo not drawn) [Compound 361]"
assay_metric = "pEC50"
recorded_value = "> 7.00"

